# System: PMA-differentiated THP-1 cells
# protocol-description: IL-1β production in PMA-differentiated THP-1 cells stimulated with gramicidin (hTHP-1 assay containing 2% fetal bovine serum; Procedures 1 and 2)
# Type: cell-based, human
# particulars: Table B3; hTHP-1 assay, 2% fetal bovine serum; class symbols; read-out: IC50
pIC50: −log10 of the molar value.
// reported pIC50 for each item listed

molecule="NS(=O)(=NC(=O)Nc1c2c(nc(C3CC3)c1C1CC1)CCC2)c1ccn(C(F)F)n1 (single isomer, unassigned) [Example 696]" recorded_measurement="4.52 to 5.30"
molecule="CCn1cc(F)c(S(N)(=O)=NC(=O)Nc2c3c(nc4c2CCC4(C)C)CCC3)n1 (single isomer, unassigned) [Example 715]" recorded_measurement="> 8.10"
molecule="CCn1cc(F)c(S(N)(=O)=NC(=O)Nc2c3c(nc4c2CC[C@H]4C)CCC3)n1 (single isomer, unassigned) [Example 670]" recorded_measurement="5.30 to 6.00"
molecule="Cc1nc2c(c(NC(=O)N=S(N)(=O)c3nn(C(F)F)cc3F)c1-c1ccccc1)CCC2 (single isomer, unassigned) [Example 728]" recorded_measurement="5.30 to 6.00"

(Q) Entry under review: NS(=O)(=NC(=O)Nc1c2c(nc3c1CCC31CC1)CCC2)c1nn(C(F)F)cc1F (single isomer, unassigned) [Example 682] . Reported pIC50?
(A) 5.30 to 6.00

(Q) Entry under review: CCn1ccc(S(N)(=O)=NC(=O)Nc2c3c(nc4c2CCC42CC2)CCC3)n1 (single isomer, unassigned) [Example 687] . Reported pIC50?
(A) 6.00 to 6.70

(Q) Entry under review: CCn1ccc(S(N)(=O)=NC(=O)Nc2c(C)c(C(F)(F)F)nc3c2CCC3)n1 (single isomer, unassigned) [Example 692] . Reported pIC50?
(A) 4.52 to 5.30

(Q) Entry under review: CC(C)(O)c1cc(F)c(S(N)(=O)=NC(=O)Nc2c3c(nc(C4CC4)c2C2CC2)CCC3)s1 (single isomer, unassigned) [Example 697] . Reported pIC50?
(A) 6.70 to 7.40

(Q) Entry under review: CCn1cc(F)c(S(N)(=O)=NC(=O)Nc2c3c(nc4c2CCC4(C)C)CCC3)n1 (single isomer, unassigned) [Example 716] . Reported pIC50?
(A) 5.30 to 6.00

(Q) Entry under review: Cc1nc2c(c(NC(=O)N=S(N)(=O)c3nn(C(F)F)cc3F)c1-c1ccccc1)CCC2 (single isomer, unassigned) [Example 727] . Reported pIC50?
(A) 6.70 to 7.40

(Q) Entry under review: NS(=O)(=NC(=O)Nc1c2c(nc3c1CCC31CC1)CCC2)c1ccn(CCO)n1 (single isomer, unassigned) [Example 648] . Reported pIC50?
(A) 4.52 to 5.30

(Q) Entry under review: CC(C)(O)c1cc(F)c(S(N)(=O)=NC(=O)Nc2c3c(nc(C4CC4)c2C2CC2)CCC3)s1 (single isomer, unassigned) [Example 698] . Reported pIC50?
(A) 5.30 to 6.00

(Q) Entry under review: CC(=O)c1csc(S(N)(=O)=NC(=O)Nc2c3c(nc4c2CC[C@H]4C)CCC3)c1 (single isomer, unassigned) [Example 666] . Reported pIC50?
(A) 4.52 to 5.30

(Q) Entry under review: C[C@@H]1CCc2c1nc1c(c2NC(=O)N=S(N)(=O)c2nn(C(F)F)cc2F)CCC1 (single isomer, unassigned) [Example 680] . Reported pIC50?
(A) 4.52 to 5.30

(Q) Entry under review: CCn1cc(F)c(S(N)(=O)=NC(=O)Nc2c3c(nc4c2CC[C@@H]4C)CCC3)n1 (single isomer, unassigned) [Example 712] . Reported pIC50?
(A) 4.52 to 5.30

(Q) Entry under review: C[C@@H]1CCc2c1nc1c(c2NC(=O)N=S(N)(=O)c2nn(C(F)F)cc2F)CCC1 (single isomer, unassigned) [Example 679] . Reported pIC50?
(A) 6.70 to 7.40

(Q) Entry under review: CCn1ccc(S(N)(=O)=NC(=O)Nc2c(C)c(C(F)(F)F)nc3c2CCC3)n1 (single isomer, unassigned) [Example 691] . Reported pIC50?
(A) 6.00 to 6.70

---

# System: PMA-differentiated THP-1 cells
# protocol-description: IL-1β production in PMA-differentiated THP-1 cells stimulated with gramicidin (hTHP-1 assay containing 2% fetal bovine serum; Procedures 1 and 2)
# Type: cell-based, human
# particulars: Table B4; 2% fetal bovine serum; class symbols; read-out: hTHP-1 IC50
// reported IC50 for each item listed

Completed entries (count: 5):
compound="CCn1cc(F)c(S(N)(=O)=NC(=O)Nc2c3c(nc(C(F)(F)F)c2-c2cccc(F)c2)CCC3)n1 (stereo not shown) [Example 747]" recorded_measurement="8 to 40 nM"
compound="CCn1cc(F)c(S(N)(=O)=NC(=O)Nc2c3c(nc(C)c2-c2ccccc2)CCC3)n1 (single isomer, unassigned) [Example 769]" recorded_measurement="5000 to 30000 nM"
compound="CC(C)n1cc(F)c(S(N)(=O)=NC(=O)Nc2c3c(nc4c2CC[C@H]4C)CCC3)n1 (single isomer, unassigned) [Example 757]" recorded_measurement="8 to 40 nM"
compound="CCn1cc(F)c(S(N)(=O)=NC(=O)Nc2c3c(nc(C(F)(F)F)c2C2CC2)CCC3)n1 (single isomer, unassigned) [Example 774]" recorded_measurement="5000 to 30000 nM"
compound="CCc1c(C(F)(F)F)nc2c(c1NC(=O)N=S(N)(=O)c1nn(CC)cc1F)CCC2 (single isomer, unassigned) [Example 772]" recorded_measurement="5000 to 30000 nM"

(Q) Entry under review: Cc1c(C(F)(F)F)nc2c(c1NC(=O)N=S(N)(=O)c1nn(-c3ccccc3)cc1F)CCC2 (single isomer, unassigned) [Example 784] . Reported IC50?
(A) 5000 to 30000 nM

(Q) Entry under review: NS(=O)(=NC(=O)Nc1c2c(nc(C(F)(F)F)c1C1CC1)CCC2)c1nn(C(F)F)cc1F (single isomer, unassigned) [Example 776] . Reported IC50?
(A) 5000 to 30000 nM

(Q) Entry under review: CCn1cc(F)c(S(N)(=O)=NC(=O)Nc2c3c(nc(C)c2-c2ccccc2)CCC3)n1 (single isomer, unassigned) [Example 770] . Reported IC50?
(A) 40 to 200 nM

(Q) Entry under review: CC1(C)CCc2c1nc1c(c2NC(=O)N=S(N)(=O)c2sc(C(O)(CO)CO)nc2CO)CCC1 (single isomer, unassigned) [Example 778] . Reported IC50?
(A) 1000 to 5000 nM

(Q) Entry under review: CC(C)n1cc(F)c(S(N)(=O)=NC(=O)Nc2c3c(nc4c2CCC4)CCC3)n1 (single isomer, unassigned) [Example 786] . Reported IC50?
(A) 5000 to 30000 nM

(Q) Entry under review: Cc1c(C(F)(F)F)nc2c(c1NC(=O)N=S(N)(=O)c1nn(C(C)C)cc1F)CCC2 (single isomer, unassigned) [Example 789] . Reported IC50?
(A) 40 to 200 nM

(Q) Entry under review: CCn1cc(F)c(S(N)(=O)=NC(=O)Nc2c3c(nc(C(F)(F)F)c2-c2ccccc2)CCC3)n1 (single isomer, unassigned) [Example 768] . Reported IC50?
(A) 200 to 1000 nM

(Q) Entry under review: NS(=O)(=NC(=O)Nc1c2c(nc(C(F)(F)F)c1C1CC1)CCC2)c1nn(C(F)F)cc1F (single isomer, unassigned) [Example 775] . Reported IC50?
(A) 40 to 200 nM

---

# Tested on: PMA-differentiated THP-1 cells
# protocol-description: IL-1β production in PMA-differentiated THP-1 cells stimulated with gramicidin (hTHP-1 assay containing 2% fetal bovine serum; Procedures 1 and 2)
# Format: cell-based, human
# particulars: Homo sapiens, THP-1, Table B2; 2% fetal bovine serum; class symbols; read-out: hTHP-1 IC50
measure-name: IC50

Completed entries (count: 5):
compound="Cc1c(C2CCC2)nc2c(c1NC(=O)N=S(N)(=O)c1cc(C(C)(C)O)cs1)CCC2 (single isomer, unassigned) [Compound 658b]" recorded_measurement="1 to 5 µM"
compound="Cc1cc(C2CC2)nc(NC(=O)N=S(N)(=O)c2ncc(C(C)(C)O)s2)n1 (single isomer, unassigned) [Compound 185a]" recorded_measurement="5 to 30 µM"
compound="Cc1cn(C(C)C)nc1S(N)(=O)=NC(=O)Nc1c2c(nc3c1CCC3)CCC2 (stereo not shown) [Compound 687]" recorded_measurement="5 to 30 µM"
compound="Cc1c(C2CC2)nc2c(c1NC(=O)N=S(N)(=O)c1cnn3c1OCCC3)CCC2 (stereo not shown) [Compound 306]" recorded_measurement="5 to 30 µM"
compound="Cc1c(C2CC2)nc(C2CC2)c(C)c1NC(=O)N=S(N)(=O)c1cc(C(C)(C)O)cs1 (stereo not shown) [Compound 612]" recorded_measurement="1 to 5 µM"

(Q) Entry under review: C[C@@H]1CCc2c1nc1c(c2NC(=O)N=S(N)(=O)c2ccn(-c3ccccc3)n2)CCC1 (stereo partly shown) [Compound 646a] . Reported IC50?
(A) 1 to 5 µM

(Q) Entry under review: Cc1c(C(F)(F)F)nc2c(c1NC(=O)N=S(N)(=O)c1cc(C(C)(C)O)cs1)CCC2 (stereo not shown) . Reported IC50?
(A) 0.04 to 0.2 µM
